The values you see were collected from ChEMBL document CHEMBL2176988.

Catalogue of Emax values
target: Neuronal acetylcholine receptor; alpha3/beta4 (Homo sapiens, UniProt P30926+P32297); assay: Agonist activity at human alpha3beta4 nAChR expressed in CHO cells assessed as calcium flux by calcium4-based FLIPR assay relative to nicotine; type: functional, cell-based
Sequence (P30926 whole entry): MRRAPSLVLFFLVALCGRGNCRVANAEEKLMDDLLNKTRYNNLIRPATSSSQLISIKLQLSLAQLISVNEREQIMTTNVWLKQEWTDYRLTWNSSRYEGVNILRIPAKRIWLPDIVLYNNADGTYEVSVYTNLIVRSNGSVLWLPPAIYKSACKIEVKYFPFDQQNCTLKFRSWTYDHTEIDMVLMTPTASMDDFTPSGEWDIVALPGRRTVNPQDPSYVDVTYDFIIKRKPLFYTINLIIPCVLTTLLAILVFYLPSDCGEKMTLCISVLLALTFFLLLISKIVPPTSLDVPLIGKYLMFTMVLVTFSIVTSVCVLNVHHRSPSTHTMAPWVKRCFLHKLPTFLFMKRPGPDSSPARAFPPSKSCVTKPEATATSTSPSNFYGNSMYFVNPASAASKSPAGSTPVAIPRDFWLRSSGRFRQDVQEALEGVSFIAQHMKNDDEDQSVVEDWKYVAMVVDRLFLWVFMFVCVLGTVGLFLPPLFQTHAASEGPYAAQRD
Sequence (P32297 whole entry): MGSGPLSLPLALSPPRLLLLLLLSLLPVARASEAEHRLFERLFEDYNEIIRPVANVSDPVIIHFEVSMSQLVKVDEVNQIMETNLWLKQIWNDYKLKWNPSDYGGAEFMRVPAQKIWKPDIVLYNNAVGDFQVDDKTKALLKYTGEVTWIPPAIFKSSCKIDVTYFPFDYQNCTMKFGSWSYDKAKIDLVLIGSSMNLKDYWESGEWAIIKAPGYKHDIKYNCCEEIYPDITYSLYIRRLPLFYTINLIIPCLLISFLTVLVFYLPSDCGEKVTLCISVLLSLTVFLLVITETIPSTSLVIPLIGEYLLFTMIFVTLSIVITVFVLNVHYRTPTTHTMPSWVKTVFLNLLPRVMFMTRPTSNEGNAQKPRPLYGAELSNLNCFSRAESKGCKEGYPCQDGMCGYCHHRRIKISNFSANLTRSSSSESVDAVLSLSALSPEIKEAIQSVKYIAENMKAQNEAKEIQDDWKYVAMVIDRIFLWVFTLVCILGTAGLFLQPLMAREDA
Reply with just the number (in %).

Some solved entries appear below for comparison.
{"columns": ["MOLECULE", "UNITS_OF_MEASURE", "NUMBER"],
 "data": [
  ["O=C(C1CC1)N1CC2CNCC(C2)C1", "%", 160],
  ["O=C(c1ccco1)N1CC2CNCC2C1 (stereo not given)", "%", 32],
  ["O=C(c1ccc(F)o1)N1CC2CNCC(C2)C1", "%", 110]
]}

Consider N#Cc1ccoc1C(=O)N1CC2CNCC2C1 (stereo not given) . Its measured Emax is 96

The recorded Emax for O=C(c1ccccn1)N1CC2CNCC2C1 (stereo not given) is 3

====

biological target: Neuronal acetylcholine receptor; alpha3/beta4 (Homo sapiens, UniProt P30926+P32297); experiment: Displacement of [3H]epibatidine from human alpha3beta4 nAChR expressed in CHO cells after 2 hrs by liquid scintillation counting; assay type: cell-based
Ki values for the compounds below.
Return type: number; implicit unit µM.

{"columns": ["COMPOUND", "UNITS_OF_MEASURE", "NUMBER"],
 "data": [
  ["O=C(C1CC1)N1C[C@@H]2CN[C@H](C2)C1", "µM", 0.2],
  ["O=C(c1cccnc1)N1CC2CNCC2C1 (stereo not drawn)", "µM", 4.4]
]}

Now consider the entry below.
Quick note, Ki for "O=C(c1occc1Cl)N1CC2CNCC(C2)C1" landed at 8.7

====

biological target: Neuronal acetylcholine receptor; alpha3/beta4 (Homo sapiens, UniProt P30926+P32297); experiment: Agonist activity at human alpha3beta4 nAChR expressed in CHO cells assessed as calcium flux by calcium4-based FLIPR assay relative to nicotine; format: functional, cell-based
Recorded Emax for the following molecules
I only need the number, in %, no unit after it.

Measured Emax of O=C(c1ccc(Oc2ccccc2)cc1)N1CC2CNCC2C1 (stereo not drawn) : 12

Input "N#Cc1coc(C(=O)N2CC3CNCC(C3)C2)c1" . Output Emax: 19

====

target: Neuronal acetylcholine receptor subunit alpha-7 (Homo sapiens, UniProt P36544); test: Displacement of [3H]epibatidine from human alpha7 nAChR expressed in CHO cells after 2 hrs by liquid scintillation counting
Sequence (P36544 whole entry): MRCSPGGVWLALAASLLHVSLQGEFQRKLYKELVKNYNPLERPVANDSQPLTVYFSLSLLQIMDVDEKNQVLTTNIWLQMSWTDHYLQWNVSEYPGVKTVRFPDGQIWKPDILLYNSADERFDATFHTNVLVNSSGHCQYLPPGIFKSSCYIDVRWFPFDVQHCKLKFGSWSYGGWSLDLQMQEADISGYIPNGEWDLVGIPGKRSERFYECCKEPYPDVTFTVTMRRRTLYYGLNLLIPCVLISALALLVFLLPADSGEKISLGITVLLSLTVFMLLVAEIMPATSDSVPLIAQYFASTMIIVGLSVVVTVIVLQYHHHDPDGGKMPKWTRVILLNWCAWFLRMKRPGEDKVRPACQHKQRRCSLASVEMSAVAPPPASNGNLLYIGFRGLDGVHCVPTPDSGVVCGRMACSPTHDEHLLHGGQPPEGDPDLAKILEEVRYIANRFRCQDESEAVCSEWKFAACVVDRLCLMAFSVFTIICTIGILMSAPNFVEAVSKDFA
Each entry below lists one item and its recorded pKi value.
// pKi here means minus log10 of the molar concentration (mol/L)

{"columns": ["COMPOUND", "ASSAYED_SYSTEM", "pKi"],
 "data": [
  ["O=C(c1ccccc1)N1CC2CNCC(C2)C1", "Neuronal acetylcholine receptor subunit alpha-7 (Homo sapiens, UniProt P36544)", 4.47],
  ["O=C(c1ccncc1)N1CC2CNC(C2)C1 (stereo not drawn)", "Neuronal acetylcholine receptor subunit alpha-7 (Homo sapiens, UniProt P36544)", 5.89],
  ["COc1ccc(C(=O)N2CC3CNCC3C2)cc1 (stereo not drawn)", "Neuronal acetylcholine receptor subunit alpha-7 (Homo sapiens, UniProt P36544)", 4.00],
  ["COc1ccc(C(=O)N2CC3CNCC(C3)C2)cc1", "Neuronal acetylcholine receptor subunit alpha-7 (Homo sapiens, UniProt P36544)", 4.00]
]}

# pKi (compound: "O=C(c1ccc(F)o1)N1CC2CNCC(C2)C1" ) is 5.33

Recorded pKi (compound O=C(c1ccncc1)N1CC2CNCC2C1 (stereo not drawn) ): 4.82

The reported pKi of the compound "O=C(c1ccc(F)o1)N1C[C@@H]2CN[C@H](C2)C1" was 4.85

Entry O=C(c1ccno1)N1CC2CNCC2C1 (stereo not drawn) , pKi reported as 4.72

GET /value?item= O=C(c1ccc(Oc2ccccc2)cc1)N1CC2CNCC2C1 (stereo not drawn) &field=pKi returns 4.89

The reported pKi of the compound O=C(C1CC1)N1CC2CNC(C2)C1 (stereo not drawn) was 6.46

Per the record, "O=C(C1CC1)N1C[C@H]2CN[C@@H](C2)C1" has pKi of 7.40

// O=C(c1ncco1)N1CC2CNCC2C1 (stereo not drawn) : pKi value = 4.85

pKi in this record for "O=C(c1ccc(Br)o1)N1C[C@H]2CN[C@@H](C2)C1" : 4.85

Value of pKi reported for the compound "O=C(c1ccco1)N1C[C@@H]2CN[C@H](C2)C1" is 5.26

Field pKi (entry O=C(c1ccoc1)N1CC2CNCC2C1 (stereo not drawn) ) reads 4.00

// recorded pKi for "O=C(c1ccc(Br)o1)N1C[C@@H]2CN[C@H](C2)C1" : 5.09

Kindly note the recorded pKi for "CCOc1cncc(/C=C/CCNC)c1" , which is 4.15

Record O=C(c1ccc(Cl)o1)N1CC2CNCC2C1 (stereo not drawn) , field pKi: 5.17

Record O=C(C1CC1)N1CC2CNCC2C1 (stereo not drawn) . Reported pKi: 6.08

Looking up "O=C(c1ccc(F)o1)N1C[C@H]2CN[C@@H](C2)C1" , I found its pKi recorded as 5.80

====

biological target: Neuronal acetylcholine receptor; alpha4/beta2 (Homo sapiens, UniProt P17787+P43681); experiment: Displacement of [3H]nicotine from alpha4beta2 nAChR in human SH-EP1 cells after 2 hrs by liquid scintillation assay; assay type: cell-based
Sequence (P17787 whole entry): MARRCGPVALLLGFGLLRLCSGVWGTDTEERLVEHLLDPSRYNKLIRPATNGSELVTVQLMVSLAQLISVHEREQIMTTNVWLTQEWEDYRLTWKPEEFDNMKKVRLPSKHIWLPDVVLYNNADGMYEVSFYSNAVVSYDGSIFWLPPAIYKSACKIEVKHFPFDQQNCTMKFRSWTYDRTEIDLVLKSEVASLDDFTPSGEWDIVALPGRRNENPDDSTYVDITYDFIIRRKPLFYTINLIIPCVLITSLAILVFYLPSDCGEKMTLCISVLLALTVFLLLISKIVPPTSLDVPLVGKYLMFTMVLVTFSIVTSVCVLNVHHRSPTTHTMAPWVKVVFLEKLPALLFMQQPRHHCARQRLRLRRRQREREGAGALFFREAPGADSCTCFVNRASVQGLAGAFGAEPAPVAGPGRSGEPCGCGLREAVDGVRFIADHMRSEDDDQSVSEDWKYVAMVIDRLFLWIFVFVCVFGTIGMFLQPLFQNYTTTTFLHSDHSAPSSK
Sequence (P43681 whole entry): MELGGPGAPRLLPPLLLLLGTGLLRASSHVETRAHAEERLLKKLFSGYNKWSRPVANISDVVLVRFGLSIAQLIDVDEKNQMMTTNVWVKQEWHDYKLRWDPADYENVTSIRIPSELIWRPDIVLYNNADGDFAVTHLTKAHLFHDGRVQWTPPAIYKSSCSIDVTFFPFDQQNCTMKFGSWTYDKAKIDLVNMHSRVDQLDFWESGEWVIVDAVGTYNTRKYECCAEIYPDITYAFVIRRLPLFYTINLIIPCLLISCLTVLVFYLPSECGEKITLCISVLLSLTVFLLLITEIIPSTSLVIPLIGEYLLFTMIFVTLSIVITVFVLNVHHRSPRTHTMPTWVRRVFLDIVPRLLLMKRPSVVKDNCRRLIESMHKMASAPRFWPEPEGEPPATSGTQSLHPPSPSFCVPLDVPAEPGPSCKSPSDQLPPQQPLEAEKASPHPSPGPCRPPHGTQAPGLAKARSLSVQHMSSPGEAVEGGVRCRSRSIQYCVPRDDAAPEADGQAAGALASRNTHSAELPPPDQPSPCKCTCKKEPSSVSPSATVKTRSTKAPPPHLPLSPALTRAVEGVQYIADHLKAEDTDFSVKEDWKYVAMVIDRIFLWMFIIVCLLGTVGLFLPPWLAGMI
MEASURED_ATTRIBUTE: pKi
As a rule, pKi stands for the negative log10 of the concentration, concentration in M.

The cases that follow already have their pKi on record.
{"columns": ["COMPOUND", "ASSAYED_SYSTEM", "MEASURED_ATTRIBUTE", "NUMBER"],
 "data": [
  ["COc1ccc(C(=O)N2CC3CNCC(C3)C2)cc1", "Neuronal acetylcholine receptor; alpha4/beta2 (Homo sapiens, UniProt P17787+P43681)", "pKi", 7.22],
  ["O=C(c1ccco1)N1CC2CNCC(C2)C1", "Neuronal acetylcholine receptor; alpha4/beta2 (Homo sapiens, UniProt P17787+P43681)", "pKi", 7.70],
  ["O=C(c1ccccn1)N1CC2CNCC2C1 (centres undefined)", "Neuronal acetylcholine receptor; alpha4/beta2 (Homo sapiens, UniProt P17787+P43681)", "pKi", 6.60]
]}

// O=C(c1ccoc1)N1CC2CNCC2C1 (centres undefined) : pKi value = 7.72

The measured pKi associated with "N#Cc1ccc(C(=O)N2CC3CNCC(C3)C2)o1" reads 8.10

The compound listed as O=C(c1ncco1)N1CC2CNCC2C1 (centres undefined) shows pKi equal to 6.47

pKi for "O=C(c1ccco1)N1C[C@H]2CN[C@@H](C2)C1" is 7.82

For this compound ( "O=C(c1cc(F)co1)N1CC2CNCC(C2)C1" ), measured pKi is 7.66

Value of measured pKi for the entry O=C(c1occc1Cl)N1CC2CNCC2C1 (centres undefined) : 8.70

The value of pKi measured for the compound O=C(c1cc(Cl)co1)N1CC2CNCC2C1 (centres undefined) turned out to be 7.96

# compound "O=C(c1ccc(Br)o1)N1C[C@@H]2CN[C@H](C2)C1" ; its pKi = 8.05

// sample O=C(c1ccccc1)N1CC2CNCC2C1 (centres undefined) , its pKi was 6.70

Reported pKi of "O=C(c1ccc(Cl)o1)N1CC2CNCC(C2)C1" : 8.30

pKi measured on "O=C(C1CC1)N1CC2CNCC(C2)C1" = 9.00

====

# maps each entry to its pEC50
biological target: Neuronal acetylcholine receptor; alpha4/beta2 (Homo sapiens, UniProt P17787+P43681); experiment: Partial agonist activity at alpha4beta2 nAChR in human SH-EP1 cells assessed as calcium flux by calcium4-based FLIPR assay; type: functional, cell-based
Schema: pEC50 number; meaning minus log10 of the concentration expressed in molar units.

{"columns": ["CPD_SMILES", "ASSAYED_SYSTEM", "MEASURED_ATTRIBUTE", "NUMBER"],
 "data": [
  ["O=C(c1ccc(Cl)o1)N1CC2CNCC(C2)C1", "Neuronal acetylcholine receptor; alpha4/beta2 (Homo sapiens, UniProt P17787+P43681)", "pEC50", 5.85],
  ["Cc1ccc(C(=O)N2CC3CNCC(C3)C2)o1", "Neuronal acetylcholine receptor; alpha4/beta2 (Homo sapiens, UniProt P17787+P43681)", "pEC50", 5.07],
  ["O=C(c1occc1Cl)N1CC2CNCC(C2)C1", "Neuronal acetylcholine receptor; alpha4/beta2 (Homo sapiens, UniProt P17787+P43681)", "pEC50", 4.12],
  ["O=C(c1ccc(Br)o1)N1CC2CNCC(C2)C1", "Neuronal acetylcholine receptor; alpha4/beta2 (Homo sapiens, UniProt P17787+P43681)", "pEC50", 5.08],
  ["O=C(c1occc1Br)N1CC2CNCC(C2)C1", "Neuronal acetylcholine receptor; alpha4/beta2 (Homo sapiens, UniProt P17787+P43681)", "pEC50", 5.07],
  ["O=C(c1cc(Cl)co1)N1CC2CNCC(C2)C1", "Neuronal acetylcholine receptor; alpha4/beta2 (Homo sapiens, UniProt P17787+P43681)", "pEC50", 4.00],
  ["Cc1ccoc1C(=O)N1CC2CNCC(C2)C1", "Neuronal acetylcholine receptor; alpha4/beta2 (Homo sapiens, UniProt P17787+P43681)", "pEC50", 4.60],
  ["O=C(c1cc(Br)co1)N1CC2CNCC(C2)C1", "Neuronal acetylcholine receptor; alpha4/beta2 (Homo sapiens, UniProt P17787+P43681)", "pEC50", 4.74]
]}

For record "O=C(c1ccc(F)o1)N1CC2CNCC(C2)C1" the listed pEC50 is 6.52

Value of pEC50 reported for the molecule "N#Cc1ccoc1C(=O)N1CC2CNCC(C2)C1" is 4.59

pEC50 recorded for this molecule, "N#Cc1ccc(C(=O)N2CC3CNCC(C3)C2)o1" , is 5.15

Lab note: "O=C(c1cc(F)co1)N1CC2CNCC(C2)C1" gave pEC50 of 6.10

Entry "O=C(c1occc1F)N1CC2CNCC(C2)C1" ; pEC50 = 4.66

Lab note: measured pEC50 of "N#Cc1coc(C(=O)N2CC3CNCC(C3)C2)c1" was 3.96
